Hey, just so you know, these numbers are from ChEMBL document CHEMBL4219024.

Experiment: Solubility of the compound in 0.01 N HCl
Conditions: 0.01 N HCl

compound	solubility
Cc1ncsc1-c1ccc(CNC(=O)[C@@H]2C[C@@H](O)CN2C(=O)[C@@H](NC(=O)COCCOCCOCCOCc2cn(CCNC(=O)C[C@@H]3N=C(c4ccc(Cl)cc4)c4c(sc(C)c4C)-n4c(C)nnc43)nn2)C(C)(C)C)cc1	394 µM
Cc1sc2c(c1C)C(c1ccc(Cl)cc1)=N[C@@H](CC(=O)NCCn1cc(COCCOc3cccc4c3C(=O)N(C3CCC(=O)NC3=O)C4=O)nn1)c1nnc(C)n1-2 (stereo partly drawn)	242 µM
Cc1sc2c(c1C)C(c1ccc(Cl)cc1)=N[C@@H](CC(=O)NCCn1cc(COCCOCCOCCOc3cccc4c3C(=O)N(C3CCC(=O)NC3=O)C4=O)nn1)c1nnc(C)n1-2 (stereo partly drawn)	310 µM
Cc1ncsc1-c1ccc(CNC(=O)[C@@H]2C[C@@H](O)CN2C(=O)[C@@H](NC(=O)COCCOCc2cn(CCNC(=O)C[C@@H]3N=C(c4ccc(Cl)cc4)c4c(sc(C)c4C)-n4c(C)nnc43)nn2)C(C)(C)C)cc1	343 µM
Cc1sc2c(c1C)C(c1ccc(Cl)cc1)=N[C@@H](CC(=O)NCCCCNC(=O)COc1cccc3c1C(=O)N(C1CCC(=O)NC1=O)C3=O)c1nnc(C)n1-2 (stereo partly drawn)	171 µM
Cc1sc2c(c1C)C(c1ccc(Cl)cc1)=N[C@@H](CC(=O)NCCn1cc(COCCOCCOc3cccc4c3C(=O)N(C3CCC(=O)NC3=O)C4=O)nn1)c1nnc(C)n1-2 (stereo partly drawn)	237 µM
Cc1sc2c(c1C)C(c1ccc(Cl)cc1)=N[C@@H](CC(=O)NCCn1cc(COc3cccc4c3C(=O)N(C3CCC(=O)NC3=O)C4=O)nn1)c1nnc(C)n1-2 (stereo partly drawn)	171 µM
Cc1ncsc1-c1ccc(CNC(=O)[C@H]2CN(C(=O)[C@@H](NC(=O)COCc3cn(CCNC(=O)C[C@@H]4N=C(c5ccc(Cl)cc5)c5c(sc(C)c5C)-n5c(C)nnc54)nn3)C(C)(C)C)C[C@@H]2O)cc1	314 µM

====

Test: physchem
Settings: fasted state simulated intestinal fluid
observed.property: solubility (µM)

compound	observed.measurement
Cc1ncsc1-c1ccc(CNC(=O)[C@@H]2C[C@@H](O)CN2C(=O)[C@@H](NC(=O)COCCOCCOCc2cn(CCNC(=O)C[C@@H]3N=C(c4ccc(Cl)cc4)c4c(sc(C)c4C)-n4c(C)nnc43)nn2)C(C)(C)C)cc1	183
Cc1sc2c(c1C)C(c1ccc(Cl)cc1)=N[C@@H](CC(=O)NCCn1cc(COc3cccc4c3C(=O)N(C3CCC(=O)NC3=O)C4=O)nn1)c1nnc(C)n1-2 (stereo not given in full)	191
Cc1ncsc1-c1ccc(CNC(=O)[C@H]2CN(C(=O)[C@@H](NC(=O)COCc3cn(CCNC(=O)C[C@@H]4N=C(c5ccc(Cl)cc5)c5c(sc(C)c5C)-n5c(C)nnc54)nn3)C(C)(C)C)C[C@@H]2O)cc1	90
Cc1sc2c(c1C)C(c1ccc(Cl)cc1)=N[C@@H](CC(=O)NCCCCNC(=O)COc1cccc3c1C(=O)N(C1CCC(=O)NC1=O)C3=O)c1nnc(C)n1-2 (stereo not given in full)	97
Cc1ncsc1-c1ccc(CNC(=O)[C@@H]2C[C@@H](O)CN2C(=O)[C@@H](NC(=O)COCCOCCOCCOCc2cn(CCNC(=O)C[C@@H]3N=C(c4ccc(Cl)cc4)c4c(sc(C)c4C)-n4c(C)nnc43)nn2)C(C)(C)C)cc1	294
